B1: SCNN1D (parent)
chain: FLGHHSFSVRPGTEATISIREDEV

- Variants of: B1
- Assay Text: protein stability index of a GFP-peptide fusion (GPS, HEK-293T) (PSI 1-6); higher = more stable;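 also: lentivirally expressed fusions sorted by FACS into six bins by GFP to DsRed ratio, PSI derived from sequencing read proportions per bin multiplied by bin number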
- Condition Label: c terminus: a fixed tail appended
Param threshold (2) applies to protein stability index; output Criterion met when value >= threshold, Criterion not met when value < threshold.

Illustrative cases are given below, each with its answer.
I17F = Criterion not met
D22R = Criterion met
T16K = Criterion not met
P11S = Criterion not met
S18N = Criterion not met

Can S18K be said to have protein stability index at or above 2?
Criterion not met

Thanks! And L2D ?
Criterion met

What about R10I ?
Criterion not met

Check A15L too.
Criterion met

// next record E21Q
Criterion not met
